// endpoint IC50 / system UniProtKB P11712
Sequence (P11712 whole entry): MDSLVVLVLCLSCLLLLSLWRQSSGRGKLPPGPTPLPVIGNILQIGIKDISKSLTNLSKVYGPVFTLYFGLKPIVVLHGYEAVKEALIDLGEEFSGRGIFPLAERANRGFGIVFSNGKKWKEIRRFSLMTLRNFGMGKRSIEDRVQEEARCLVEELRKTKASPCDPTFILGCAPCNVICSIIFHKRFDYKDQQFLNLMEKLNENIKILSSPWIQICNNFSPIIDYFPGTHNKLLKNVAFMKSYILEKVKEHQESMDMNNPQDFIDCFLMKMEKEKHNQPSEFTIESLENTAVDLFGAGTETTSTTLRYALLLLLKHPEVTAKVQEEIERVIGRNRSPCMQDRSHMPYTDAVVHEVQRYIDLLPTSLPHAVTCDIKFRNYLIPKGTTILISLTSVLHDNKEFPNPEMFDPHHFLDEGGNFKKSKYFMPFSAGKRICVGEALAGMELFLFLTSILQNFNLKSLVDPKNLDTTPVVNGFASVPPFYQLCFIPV
Please respond with the number in µM and leave the unit unwritten.

Task item: Give the measured IC50 of COc1ccc(NC(=O)c2cc(Oc3cncc(F)c3)cn3ccnc23)nc1 .
Reply: 5.7

// below: IC50 requested for another compound
Task item: Give the measured IC50 of Cc1ccc(NC(=O)c2cc(Oc3cncc(F)c3)cn3ccnc23)nc1 .
Reply: 6.9

----------
// endpoint IC50 / system Cytochrome P450 3A4 (Homo sapiens)
Please respond with the number in µM and leave the unit unwritten.

Here's what some known entries look like.
Task item: Provide value of IC50 for this record tested with Cytochrome P450 3A4 (Homo sapiens): O=C(Nc1cccc(F)n1)c1cc(Oc2cncc(F)c2)cn2ccnc12
Sequence (P08684 whole entry): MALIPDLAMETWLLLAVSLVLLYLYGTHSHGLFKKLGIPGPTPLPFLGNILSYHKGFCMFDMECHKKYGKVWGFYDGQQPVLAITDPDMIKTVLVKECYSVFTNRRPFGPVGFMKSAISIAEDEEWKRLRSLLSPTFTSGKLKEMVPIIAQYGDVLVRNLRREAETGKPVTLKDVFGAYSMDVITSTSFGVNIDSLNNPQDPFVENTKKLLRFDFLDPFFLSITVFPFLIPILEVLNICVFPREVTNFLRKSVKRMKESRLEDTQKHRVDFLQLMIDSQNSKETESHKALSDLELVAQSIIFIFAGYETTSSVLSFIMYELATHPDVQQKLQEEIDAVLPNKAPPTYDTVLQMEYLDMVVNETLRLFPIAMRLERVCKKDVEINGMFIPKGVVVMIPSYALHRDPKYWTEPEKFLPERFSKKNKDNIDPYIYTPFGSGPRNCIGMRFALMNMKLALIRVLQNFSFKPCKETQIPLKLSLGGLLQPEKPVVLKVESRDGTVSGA
Reply: 2.3

Task item: Provide value of IC50 for this record tested with Cytochrome P450 3A4 (Homo sapiens): COc1ccc(NC(=O)c2cc(Oc3cncc(F)c3)cn3ccnc23)nc1
Reply: 2

Task item: Provide value of IC50 for this record tested with Cytochrome P450 3A4 (Homo sapiens): Cc1ccc(NC(=O)c2cc(Oc3cncc(F)c3)cn3ccnc23)nc1
Reply: 1.9

// below: IC50 requested for another molecule
Task item: Provide value of IC50 for this record tested with Cytochrome P450 3A4 (Homo sapiens): O=C(Nc1ccc(F)cn1)c1cc(Oc2cnc(F)c(F)c2)cn2ncnc12
Reply: 23

----------
# maps each entry to its Fu
# Tested on: Plasma
# test conditions: rat, 4 h, 5 µM
Please state the value as a number alone, without comment.

Task item: Provide value of Fu for this record tested with Plasma: O=C(Nc1ccc(F)cn1)c1cc(Oc2cncc(F)c2)cn2cnnc12
Reply: 0.051

Task item: Provide value of Fu for this record tested with Plasma: O=C(Nc1ccc(F)cn1)c1cc(Oc2cncnc2)cn2ncnc12
Reply: 0.168

Task item: Provide value of Fu for this record tested with Plasma: Cc1ccc(NC(=O)c2cc(Oc3cncc(F)c3)cn3ccnc23)nc1
Reply: 0.005

Task item: Provide value of Fu for this record tested with Plasma: O=C(Nc1ccc(F)cn1)c1cc(Oc2cncc(F)c2)cn2ccnc12
Reply: 0.028

Task item: Provide value of Fu for this record tested with Plasma: O=C(Nc1ccc(F)cn1)c1cc(Oc2cncc(F)c2F)cn2ncnc12
Reply: 0.066

// below: Fu requested for another compound
Task item: Provide value of Fu for this record tested with Plasma: COc1ccc(NC(=O)c2cc(Oc3cncc(F)c3)cn3ccnc23)nc1
Reply: 0.014

----------
# tested system: Metabotropic glutamate receptor 5 (Rattus norvegicus)
# procedure text: Negative allosteric modulation of rat mGlu5 receptor expressed in HEK293 cells assessed as inhibition of glutamate induced-calcium mobilization at 30 uM preincubated for 2.3 mins followed by glutamate addition measured after 1.7 mins by Fluo-4 AM dye based fluorescence assay relative to glutamate
# Assay type: functional, cell-based
endpoint name: %max (%)
Please respond with the number in % and leave the unit unwritten.

Here's what some known entries look like.
Task item: Give the measured %max of O=C(Nc1ccc(F)cn1)c1cc(Oc2cncc(F)c2)cn2ccnc12 .
Reply: 1.6

Task item: Give the measured %max of Cc1nc2c(C(=O)Nc3ccc(F)cn3)cc(Oc3cncc(F)c3)cn2n1 .
Reply: 3.3

Task item: Give the measured %max of O=C(Nc1cccc(F)n1)c1cc(Oc2cncc(F)c2)cn2ccnc12 .
Reply: 1.5

Continuing:
Task item: Give the measured %max of O=C(Nc1ccc(F)cn1)c1cc(Oc2cc(F)cnc2F)cn2ncnc12 .
Reply: 2.2

Task item: Give the measured %max of COc1ccc(NC(=O)c2cc(Oc3cncc(F)c3)cn3ccnc23)nc1 .
Reply: 1.6

----------
# Tested on: Plasma
# test conditions: human, 4 h, 5 µM
# maps each entry to its Fu

Here's what some known entries look like.
Task item: Give the measured Fu of O=C(Nc1ccc(F)cn1)c1cc(Oc2cncc(F)c2F)cn2ncnc12 .
Reply: 0.067

Task item: Give the measured Fu of O=C(Nc1ccc(F)cn1)c1cc(Oc2cncc(F)c2)cn2ncnc12 .
Reply: 0.071

Continuing:
Task item: Give the measured Fu of COc1ccc(NC(=O)c2cc(Oc3cncc(F)c3)cn3ccnc23)nc1 .
Reply: 0.028

Task item: Give the measured Fu of O=C(Nc1ccc(F)cn1)c1cc(Oc2cncc(F)c2)cn2cnnc12 .
Reply: 0.1

Task item: Give the measured Fu of O=C(Nc1ccc(F)cn1)c1cc(Oc2cnc(F)c(F)c2)cn2ncnc12 .
Reply: 0.031

Task item: Give the measured Fu of O=C(Nc1ccc(F)cn1)c1cc(Oc2cncc(F)c2)cn2ccnc12 .
Reply: 0.02

Task item: Give the measured Fu of O=C(Nc1cccc(F)n1)c1cc(Oc2cncc(F)c2)cn2ccnc12 .
Reply: 0.026

Task item: Give the measured Fu of O=C(Nc1ccc(F)cn1)c1cc(Oc2cncnc2)cn2ncnc12 .
Reply: 0.313

Task item: Give the measured Fu of Cc1ccc(NC(=O)c2cc(Oc3cncc(F)c3)cn3ccnc23)nc1 .
Reply: 0.016

----------
# procedure text: AUC in rat at 10 mg/kg, po
# Format: ADME, organism-based
# test conditions: in vivo
endpoint name: AUC (µM·h)
Please respond with the number in µM·h and leave the unit unwritten.

Task item: Give the measured AUC of O=C(Nc1ccc(F)cn1)c1cc(Oc2cncc(F)c2)cn2ncnc12 .
Reply: 8.3

Continuing:
Task item: Give the measured AUC of O=C(Nc1ccc(F)cn1)c1cc(Oc2cncc(F)c2)cn2cnnc12 .
Reply: 5.67

----------
# maps each entry to its IC50
# tested system: Sodium-dependent dopamine transporter (Homo sapiens, UniProt Q01959)
# Sequence (Q01959 whole entry): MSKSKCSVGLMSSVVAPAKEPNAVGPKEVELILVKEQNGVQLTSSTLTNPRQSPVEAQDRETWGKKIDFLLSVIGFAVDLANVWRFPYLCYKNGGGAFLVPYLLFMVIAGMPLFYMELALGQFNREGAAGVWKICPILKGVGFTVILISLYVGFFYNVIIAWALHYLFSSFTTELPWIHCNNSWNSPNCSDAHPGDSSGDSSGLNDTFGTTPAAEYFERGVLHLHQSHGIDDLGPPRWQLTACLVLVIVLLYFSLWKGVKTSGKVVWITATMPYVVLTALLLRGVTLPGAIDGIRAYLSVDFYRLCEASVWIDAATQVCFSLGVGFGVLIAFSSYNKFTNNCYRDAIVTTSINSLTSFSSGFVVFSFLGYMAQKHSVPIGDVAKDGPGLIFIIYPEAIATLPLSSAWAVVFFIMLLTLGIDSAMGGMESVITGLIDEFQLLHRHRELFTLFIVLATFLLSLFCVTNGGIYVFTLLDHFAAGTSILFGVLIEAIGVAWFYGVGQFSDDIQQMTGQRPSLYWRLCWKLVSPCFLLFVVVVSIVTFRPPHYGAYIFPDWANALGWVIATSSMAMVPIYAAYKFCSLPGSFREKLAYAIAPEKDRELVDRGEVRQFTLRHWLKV
# Type: ADME, cell-based
Please respond with the number in nM and leave the unit unwritten.

Task item: Give the measured IC50 of O=C(Nc1ccc(F)cn1)c1cc(Oc2cncc(F)c2)cn2ncnc12 .
Reply: 730

// below: IC50 requested for another compound
Task item: Give the measured IC50 of O=C(Nc1ccc(F)cn1)c1cc(Oc2cnc(F)c(F)c2)cn2ncnc12 .
Reply: 2870

----------
# maps each entry to its Fu
# Test system: Plasma
# test conditions: rat, 4 h, 5 µM
Please state the value as a number alone, without comment.

Here's what some known entries look like.
Task item: Give the measured Fu of O=C(Nc1ccc(F)cn1)c1cc(Oc2cncc(F)c2)cn2ncnc12 .
Reply: 0.066

Task item: Give the measured Fu of O=C(Nc1ccc(F)cn1)c1cc(Oc2cnc(F)c(F)c2)cn2ncnc12 .
Reply: 0.023

// below: Fu requested for another compound
Task item: Give the measured Fu of O=C(Nc1cccc(F)n1)c1cc(Oc2cncc(F)c2)cn2ccnc12 .
Reply: 0.023
